- target.under.test: Sodium channel protein type 1 subunit alpha (Rattus norvegicus) (UniProt P04774)
- method.description: NVS_IC_rNaCh_site2: NovaScreen (NVS) Ion Channel Assay for rat Sodium Channel, Site 2 (NaCh) (AID 2283322);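 also: hit means loss of radioligand binding signal relative to DMSO so AC50 marks displacement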
Results filed as inconclusive are left out. Calls of active or inactive are those of the source. The calls were made as follows: active = hit-call score of the fitted dose curve at least 0.9, where 1 is the maximum; inconclusive = response in the unintended direction; inactive = score below 0.9.
Hi there, use one of these labels in your reply, thanks! TRUE = active, FALSE = inactive

# count of solved cases: 3
>>> discrete_label("CCOC(=O)[C@]1(c2ccccc2)Oc2ccccc2[C@@H]1N")
"TRUE"
>>> discrete_label("O=C(N[C@H](c1ccccc1)[C@@H]1CN2CCC1CC2)c1c(Cl)ccc(C(F)(F)F)c1Cl")
"TRUE"
>>> discrete_label("COP(=S)(OC)SCN1C(=O)c2ccccc2C1=O")
"FALSE"

Each molecule tested received a call. Report the one for CCCCCOC(=O)c1ccccc1C(=O)OCCCCC . FALSE

Each molecule tested received a call. Report the one for CCCCCCCCn1sccc1=O . TRUE

Each molecule tested received a call. Report the one for CCCCCCCCCCCCCN1CC(C)OC(C)C1 (configuration not stated) . FALSE

Each molecule tested received a call. Report the one for CCC[CH2][Sn]([Cl])([CH2]CCC)[CH2]CCC . TRUE
